Data provenance is PubChem BioAssay AID2060348.

- System: 885724-159-R-J1-PDC spheroids viability
- METHOD NOTES: Anticancer human tumor 885724-159-R-J1-PDC patient-derived pancreatic adenocarcinoma cell line growth inhibition [TAK]
- MEASUREMENT CONTEXT: second compound 3 µM; first compound 0.001 µM; active compounds read low; spheroids with HUVEC and MSC
ASSAY READOUT: viability, T/C

Recorded viability, T/C, per entry:
CC(C)n1nc(-c2ccc3oc(N)nc3c2)c2c(N)ncnc21 + CC(C)NCC(C(=O)N1CCN(c2ncnc3c2C(C)CC3O)CC1)c1ccc(Cl)cc1 :: 61.8%
COC1CC2CCC(C)C(O)(O2)C(=O)C(=O)N2CCCCC2C(=O)OC(C(C)CC2CCC(OCCO)C(OC)C2)CC(=O)C(C)C=C(C)C(O)C(OC)C(=O)C(C)CC(C)C=CC=CC=C1C (centres undefined) + CC(C)NCC(C(=O)N1CCN(c2ncnc3c2C(C)CC3O)CC1)c1ccc(Cl)cc1 :: 60.4%
CC(C)CC(NC(=O)C(Cc1ccccc1)NC(=O)c1cnccn1)B(O)O (centres undefined) + CC(C)NCC(C(=O)N1CCN(c2ncnc3c2C(C)CC3O)CC1)c1ccc(Cl)cc1 :: 57.9%

Req: Entry CC(C)CC(NC(=O)CNC(=O)c1cc(Cl)ccc1Cl)B1OC(=O)CC(CC(=O)O)(C(=O)O)O1 (centres undefined) + CC(C)NCC(C(=O)N1CCN(c2ncnc3c2C(C)CC3O)CC1)c1ccc(Cl)cc1 : reported viability, T/C = ?
Resp: 58.3%

----------
- Test system: 885724-159-R-J1-PDC spheroids viability
- METHOD NOTES: Anticancer human tumor 885724-159-R-J1-PDC cell line growth inhibition [TAK]
- MEASUREMENT CONTEXT: second compound 0.949 µM; first compound 0.316 µM; active compounds read low; spheroids with HUVEC and MSC
ASSAY READOUT: viability, T/C (%)
Answers are plain numbers, in %.

Cc1nc(NC(=O)N2CCCC2C(N)=O)sc1-c1ccnc(C(C)(C)C(F)(F)F)c1 (centres undefined) + CC(C)NCC(C(=O)N1CCN(c2ncnc3c2C(C)CC3O)CC1)c1ccc(Cl)cc1 :: 35.9
CC(C)(C)c1nc(-c2cccc(NS(=O)(=O)c3c(F)cccc3F)c2F)c(-c2ccnc(N)n2)s1 + CC(C)NCC(C(=O)N1CCN(c2ncnc3c2C(C)CC3O)CC1)c1ccc(Cl)cc1 :: 111

# batch size: 2; output viability, T/C per entry
1. COc1c(OCCCN2CCOCC2)ccc2c3n(c(=NC(=O)c4cnc(N)nc4)nc12)CCN3 + CC(C)NCC(C(=O)N1CCN(c2ncnc3c2C(C)CC3O)CC1)c1ccc(Cl)cc1
2. CCCS(=O)(=O)Nc1ccc(F)c(C(=O)c2c[nH]c3ncc(-c4ccc(Cl)cc4)cc23)c1F + CC(C)NCC(C(=O)N1CCN(c2ncnc3c2C(C)CC3O)CC1)c1ccc(Cl)cc1

Resp:
12.1
66.1

----------
Exercise: for every item that follows, state its recorded viability, T/C.
- System: 885724-159-R-J1-PDC spheroids viability
- METHOD NOTES: Anticancer human tumor 885724-159-R-J1-PDC cell line growth inhibition [TAK];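 further: spheroids exposed to drugs for seven days; 100% = DMSO vehicle control viability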
- MEASUREMENT CONTEXT: second compound 0.3 µM; first compound 0.01 µM; active compounds read low; spheroids with HUVEC and MSC
Numbers only, in %.

Recorded viability, T/C, per entry:
COc1c(OCCCN2CCOCC2)ccc2c3n(c(=NC(=O)c4cnc(N)nc4)nc12)CCN3 + CC(C)NCC(C(=O)N1CCN(c2ncnc3c2C(C)CC3O)CC1)c1ccc(Cl)cc1 :: 41.2
CC(C)CC(NC(=O)CNC(=O)c1cc(Cl)ccc1Cl)B1OC(=O)CC(CC(=O)O)(C(=O)O)O1 (stereo not given) + CC(C)NCC(C(=O)N1CCN(c2ncnc3c2C(C)CC3O)CC1)c1ccc(Cl)cc1 :: 63.3
CC(C)n1nc(-c2ccc3oc(N)nc3c2)c2c(N)ncnc21 + CC(C)NCC(C(=O)N1CCN(c2ncnc3c2C(C)CC3O)CC1)c1ccc(Cl)cc1 :: 53.9

# batch size: 2; output viability, T/C per entry
1. COC1CC2CCC(C)C(O)(O2)C(=O)C(=O)N2CCCCC2C(=O)OC(C(C)CC2CCC(OCCO)C(OC)C2)CC(=O)C(C)C=C(C)C(O)C(OC)C(=O)C(C)CC(C)C=CC=CC=C1C (stereo not given) + CC(C)NCC(C(=O)N1CCN(c2ncnc3c2C(C)CC3O)CC1)c1ccc(Cl)cc1
2. CC(C)CC(NC(=O)C(Cc1ccccc1)NC(=O)c1cnccn1)B(O)O (stereo not given) + CC(C)NCC(C(=O)N1CCN(c2ncnc3c2C(C)CC3O)CC1)c1ccc(Cl)cc1

Resp:
1: 58.5; 2: 0.97

----------
Exercise: for every item that follows, state its recorded viability, T/C.
- Test system: 885724-159-R-J1-PDC spheroids viability
- METHOD NOTES: Anticancer human tumor 885724-159-R-J1-PDC cell line growth inhibition [TAK];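 further: spheroids exposed to drugs for seven days; 100% = DMSO vehicle control viability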
- MEASUREMENT CONTEXT: second compound 30 µM; first compound 0.00316 µM; active compounds read low; spheroids with HUVEC and MSC
One number for each entry, in %.

Recorded viability, T/C, per entry:
COC1CC2CCC(C)C(O)(O2)C(=O)C(=O)N2CCCCC2C(=O)OC(C(C)CC2CCC(OCCO)C(OC)C2)CC(=O)C(C)C=C(C)C(O)C(OC)C(=O)C(C)CC(C)C=CC=CC=C1C (stereo not given) + CC(C)NCC(C(=O)N1CCN(c2ncnc3c2C(C)CC3O)CC1)c1ccc(Cl)cc1 :: 27.5
CC(C)CC(NC(=O)CNC(=O)c1cc(Cl)ccc1Cl)B1OC(=O)CC(CC(=O)O)(C(=O)O)O1 (stereo not given) + CC(C)NCC(C(=O)N1CCN(c2ncnc3c2C(C)CC3O)CC1)c1ccc(Cl)cc1 :: 34.7
COc1c(OCCCN2CCOCC2)ccc2c3n(c(=NC(=O)c4cnc(N)nc4)nc12)CCN3 + CC(C)NCC(C(=O)N1CCN(c2ncnc3c2C(C)CC3O)CC1)c1ccc(Cl)cc1 :: 18
CC(C)CC(NC(=O)C(Cc1ccccc1)NC(=O)c1cnccn1)B(O)O (stereo not given) + CC(C)NCC(C(=O)N1CCN(c2ncnc3c2C(C)CC3O)CC1)c1ccc(Cl)cc1 :: 14.8

Req: Entry CC(C)n1nc(-c2ccc3oc(N)nc3c2)c2c(N)ncnc21 + CC(C)NCC(C(=O)N1CCN(c2ncnc3c2C(C)CC3O)CC1)c1ccc(Cl)cc1 : reported viability, T/C = ?
Resp: 30.2

----------
- System: 885724-159-R-J1-PDC spheroids viability
- METHOD NOTES: Anticancer human tumor 885724-159-R-J1-PDC cell line growth inhibition [TAK];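 further: spheroids exposed to drugs for seven days; 100% = DMSO vehicle control viability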
- MEASUREMENT CONTEXT: second compound 0.3 µM; first compound 1 µM; active compounds read low; spheroids with HUVEC and MSC
Exercise: for every item that follows, state its recorded viability, T/C.
Give bare numbers, in %.

Recorded viability, T/C, per entry:
CCCS(=O)(=O)Nc1ccc(F)c(C(=O)c2c[nH]c3ncc(-c4ccc(Cl)cc4)cc23)c1F + CC(C)NCC(C(=O)N1CCN(c2ncnc3c2C(C)CC3O)CC1)c1ccc(Cl)cc1 :: 93.8
Cc1nc(NC(=O)N2CCCC2C(N)=O)sc1-c1ccnc(C(C)(C)C(F)(F)F)c1 (centres undefined) + CC(C)NCC(C(=O)N1CCN(c2ncnc3c2C(C)CC3O)CC1)c1ccc(Cl)cc1 :: 41.5
CC(C)(C)c1nc(-c2cccc(NS(=O)(=O)c3c(F)cccc3F)c2F)c(-c2ccnc(N)n2)s1 + CC(C)NCC(C(=O)N1CCN(c2ncnc3c2C(C)CC3O)CC1)c1ccc(Cl)cc1 :: 134

# evaluate next
Req: # value lookup — system 885724-159-R-J1-PDC spheroids viability, readout viability, T/C, item COc1c(OCCCN2CCOCC2)ccc2c3n(c(=NC(=O)c4cnc(N)nc4)nc12)CCN3 + CC(C)NCC(C(=O)N1CCN(c2ncnc3c2C(C)CC3O)CC1)c1ccc(Cl)cc1
Resp: 12.3

----------
- Test system: 885724-159-R-J1-PDC spheroids viability
- METHOD NOTES: Anticancer human tumor 885724-159-R-J1-PDC cell line growth inhibition [TAK]; active = viability on the fitted dose curve at most 10% of control; inactive = the rest;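 further: spheroids exposed to drugs for seven days; 100% = DMSO vehicle control viability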
- MEASUREMENT CONTEXT: second compound 30 µM; first compound 1 µM; spheroids with HUVEC and MSC
# valid calls are TRUE for active, FALSE for inactive; nothing else

COc1c(OCCCN2CCOCC2)ccc2c3n(c(=NC(=O)c4cnc(N)nc4)nc12)CCN3 + CC(C)NCC(C(=O)N1CCN(c2ncnc3c2C(C)CC3O)CC1)c1ccc(Cl)cc1 :: TRUE

Req: What did the test return for CCCS(=O)(=O)Nc1ccc(F)c(C(=O)c2c[nH]c3ncc(-c4ccc(Cl)cc4)cc23)c1F + CC(C)NCC(C(=O)N1CCN(c2ncnc3c2C(C)CC3O)CC1)c1ccc(Cl)cc1 ?
Resp: FALSE

Req: Same thing, different compound: Cc1nc(NC(=O)N2CCCC2C(N)=O)sc1-c1ccnc(C(C)(C)C(F)(F)F)c1 (centres undefined) + CC(C)NCC(C(=O)N1CCN(c2ncnc3c2C(C)CC3O)CC1)c1ccc(Cl)cc1
Resp: FALSE

Req: Same thing, different compound: CC(C)(C)c1nc(-c2cccc(NS(=O)(=O)c3c(F)cccc3F)c2F)c(-c2ccnc(N)n2)s1 + CC(C)NCC(C(=O)N1CCN(c2ncnc3c2C(C)CC3O)CC1)c1ccc(Cl)cc1
Resp: FALSE
